test system: Escherichia coli TOP10; assay: shrunken log2 fold change of peptide-encoding DNA abundance (4.5 h post-induction vs induction); higher = less antimicrobial activity (less host growth inhibition); conditions: time post-induction: 4.5 h; library: site-saturation at positions 5, 18, 19, 20;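 further: peptides expressed intracellularly from a pBAD plasmid library in pooled LB shake-flask culture, induced with 0.3% L-arabinose, DNA abundance read by NGS, three biological replicates, DESeq2 with apeglm shrinkage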
endpoint_name: shrunken log2 fold change
Provide a numeric answer; units are not to be included.

See these solved cases before continuing.
RRIRIRPPRLPRPRPRPYCSPRP    -0.0144
RRIRWRPPRLPRPRPRPLQSPRP    0.153

Data request, read-out shrunken log2 fold change, for `RRIRARPPRLPRPRPRPREKPRP`
0.383

Data request, read-out shrunken log2 fold change, for `RRIRRRPPRLPRPRPRPKDDPRP`
0.302

Data request, read-out shrunken log2 fold change, for `RRIRNRPPRLPRPRPRPVKRPRP`
0.0962

Data request, read-out shrunken log2 fold change, for `RRIRVRPPRLPRPRPRPNNWPRP`
-0.183

Data request, read-out shrunken log2 fold change, for `RRIRFRPPRLPRPRPRPHTTPRP`
-0.155

Data request, read-out shrunken log2 fold change, for `RRIRFRPPRLPRPRPRPVPGPRP`
0.1
